Reference source for all entries: paper PMC11385693

Assay: Cyclic voltammetry
Assay type: physicochemical
Conditions: Run2, scan rate 90 mV s^−1
Recorded measurements of ΔEp, one per entry
Give just the numeric value; mV need not be written.

Sample answers from the record:
Challenge: Supply recorded ΔEp for O=C(NCCn1cnc2ncccc21)[c-]1cccc1.[Fe+2].c1cc[cH-]c1 [Compound 16] here.
Response given: 69

Challenge: Supply recorded ΔEp for O=C(NCCn1cnc2cccnc21)[c-]1cccc1.[Fe+2].c1cc[cH-]c1 [Compound 17] here.
Response given: 68

Challenge: Supply recorded ΔEp for O=C(NCCn1cnc2ccccc21)[c-]1cccc1.[Fe+2].c1cc[cH-]c1 [Compound 15] here.
Response given: 78

New cases:
Challenge: Supply recorded ΔEp for [Fe+2].c1cc[cH-]c1.c1cc[cH-]c1 [Fc, ferrocene, reference compound] here.
Response given: 83

Challenge: Supply recorded ΔEp for O=C(NCCn1c(-c2ccccc2)nc2ccccc21)[c-]1cccc1.[Fe+2].c1cc[cH-]c1 [Compound 14] here.
Response given: 75

Challenge: Supply recorded ΔEp for O=C(O)[c-]1cccc1.[Fe+2].c1cc[cH-]c1 [FcCOOH, ferrocene carboxylic acid, reference compound] here.
Response given: 71
